- system under test: human recombinant serotonin (5-Hydroxytryptamine) 5-HT6 receptor (Homo sapiens)
- Construct: expressed in transfected cells; host or cells: human HeLa cells
- Sequence (P50406 whole entry): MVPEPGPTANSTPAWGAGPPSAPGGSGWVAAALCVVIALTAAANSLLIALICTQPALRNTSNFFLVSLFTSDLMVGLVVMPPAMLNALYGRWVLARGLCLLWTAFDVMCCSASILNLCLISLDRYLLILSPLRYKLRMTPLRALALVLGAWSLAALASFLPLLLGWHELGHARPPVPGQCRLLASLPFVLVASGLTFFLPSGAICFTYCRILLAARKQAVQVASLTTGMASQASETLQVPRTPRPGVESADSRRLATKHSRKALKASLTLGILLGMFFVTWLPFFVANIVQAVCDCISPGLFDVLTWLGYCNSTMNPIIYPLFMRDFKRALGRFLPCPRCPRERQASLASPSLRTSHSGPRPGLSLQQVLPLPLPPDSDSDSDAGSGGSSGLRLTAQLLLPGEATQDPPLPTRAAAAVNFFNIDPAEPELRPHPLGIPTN
- protocol text: Serotonin 5-HT6 radioligand binding ([3H]LSD)
- Parameters: concentration or dose not given beside the values
- experimental conditions: percent inhibition of specific binding
metric name: Inhibition of ligand binding, Ser. 5-HT6 (%)

| compound | numeric value |
| --- | --- |
| CCN1CCc2c(c3cc(C)ccc3n2Cc2ccc(C)nc2)C1 | 22 |
| CN1CCc2c(c3cc(Cl)ccc3n2CC(=O)N2CCNCC2)C1 | 13 |
| Cc1ccc(CCn2c3c(c4cc(C)ccc42)CN(C)CC3)cc1 | 103 |
| Cc1ccc2c(c1)c1c(n2CCc2ccc(C)nc2)CCN(C)C1 [Dimebon, dimebon, reference compound] | 95 |
| CCN1CCc2c(c3cc(C)ccc3n2CCc2ccncc2)C1 | 38 |
| CN1CCc2c(c3cc(Cl)ccc3n2CC(=O)N2CC[S+]([O-])CC2)C1 | 3 |
| Cc1cnc(CCn2c3c(c4cc(Cl)ccc42)CN(C)CC3)cn1 | 83 |
| Cc1ccc(CCn2c3c(c4cc(C(=O)O)ccc42)CNCC3)cn1 | −2 |
| CCN1CCc2c(c3ccccc3n2CCc2ccncc2)C1 | 1 |
| Cc1ccc2c(c1)c1c(n2CCc2ccc(CO)nc2)CCN(C)C1 | 69 |
| CN1CCc2c(c3cc(Cl)ccc3n2CCn2cccc2)C1 | 101 |
| Cc1cnc(CCn2c3c(c4cc(C(C)C)ccc42)CN(C)CC3)cn1 | 23 |
| CCCc1ccc(CCn2c3c(c4cc(Cl)ccc42)CN(C)CC3)cn1 | 87 |
| Cc1ccc2c(c1)c1c(n2CCN2CCCC2)CCN(C)C1 | 29 |
| Cc1ccc2c(c1)c1c(n2CCc2ccccc2)CCNC1 | 89 |
| COc1ccc(CCn2c3c(c4cc(Cl)ccc42)CN(C)CC3)cc1F | 104 |
| CC(C)N1CCN(C(=O)Cn2c3c(c4cc(Cl)ccc42)CN(C)CC3)CC1 | 67 |
| Cc1ccc(C(O)Cn2c3c(c4cc(C)ccc42)CN(C)CC3)cc1 (racemic) | 99 |
| CN1CCc2c(c3cc(Cl)ccc3n2CC(=O)N2CCOCC2)C1 | 5 |

====

Listed here are molecules together with their documented Inhibition of ligand binding, Ser. 5-HT7.
- system under test: Serotonin (5-Hydroxytryptamine) 5-HT7 (Homo sapiens)
- Construct: expressed in transfected cells; host or cells: CHO cells
- Sequence (P34969 whole entry): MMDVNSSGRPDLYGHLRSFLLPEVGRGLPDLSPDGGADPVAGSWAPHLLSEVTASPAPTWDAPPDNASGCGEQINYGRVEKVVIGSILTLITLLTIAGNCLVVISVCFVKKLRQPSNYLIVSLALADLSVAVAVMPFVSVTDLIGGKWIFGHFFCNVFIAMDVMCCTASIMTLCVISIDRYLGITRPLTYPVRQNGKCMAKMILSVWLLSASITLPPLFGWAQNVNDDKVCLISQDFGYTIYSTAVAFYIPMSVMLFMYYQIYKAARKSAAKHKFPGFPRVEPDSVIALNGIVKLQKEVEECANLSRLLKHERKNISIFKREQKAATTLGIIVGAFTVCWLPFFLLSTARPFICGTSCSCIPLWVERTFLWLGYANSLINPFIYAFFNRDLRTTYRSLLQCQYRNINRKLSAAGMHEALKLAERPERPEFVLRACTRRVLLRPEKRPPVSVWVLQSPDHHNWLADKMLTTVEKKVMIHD
- protocol text: Serotonin 5-HT7 radioligand binding ([3H]LSD)
- Parameters: concentration or dose not given beside the values
- experimental conditions: percent inhibition of specific binding

| molecule | Inhibition of ligand binding, Ser. 5-HT7 / % |
| --- | --- |
| Cc1ccc2c(c1)c1c(n2Cc2ccccc2)CCN(C)C1 [Compound 137] | 15 |
| CN1CCc2c(c3ccccc3n2CCc2ccccc2)C1 [Compound 2] | 100 |
| CN1CCc2c(c3ccc(Cl)cc3n2CCC2CCCCC2)C1 [Compound 188] | 41 |
| Cc1ccc2c(c1)c1c(n2CCCc2ccccn2)CCN(C)C1 [Compound 233] | 101 |
| CCN1CCc2c(c3ccccc3n2CCc2ccc(C)cc2)C1 [Compound 3] | 81 |
| Cc1ccc2c(c1)c1c(n2CC(=O)N2CCCCC2)CCN(C)C1 [Compound 395] | 24 |
| CN1CCc2c(c3cc(Cl)ccc3n2CCc2ccc(F)cc2)C1 [Compound 162] | 94 |
| CCN1CCc2c(c3cc(C)ccc3n2Cc2ccc(C)nc2)C1 [Compound 138] | 23 |
| CN1CCc2c(c3cc(Cl)ccc3n2CCn2cccc2)C1 [Compound 349] | 100 |
| CCN1CCc2c(c3ccccc3n2Cc2ccccc2)C1 [Compound 16] | 14 |
| CN1CCc2c(c3cc(Cl)ccc3n2CCC2CCCCC2)C1 [Compound 164] | 92 |
| CCOC(=O)N1CCc2c(c3cc(Br)ccc3n2CCc2ccc(C)nc2)C1 [Compound 18] | 10 |
| CCN1CCc2c(c3cc(C)ccc3n2Cc2ccccc2)C1 [Compound 140] | 2 |
| CN1CCc2c(c3c(Cl)cccc3n2CCc2ccccc2)C1 [Compound 81] | 89 |
| Cc1ccc2c(c1)c1c(n2CCc2ccncc2)CCN(C)C1 [Compound 22] | 99 |
| Cc1ccc2c(c1)c1c(n2CCc2ccc(C(=O)O)nc2)CCNC1 [Compound 262] | 6 |
| CCOC(=O)N1CCc2c(c3cc(C)ccc3n2CCc2ccccc2)C1 [Compound 24] | −2 |
| Cc1ccc2c(c1)c1c(n2CCc2ccc(C(C)C)nc2)CCN(C)C1 [Compound 360] | 91 |
| CN1CCc2c(c3cc(I)ccc3n2CCc2ccccc2F)C1 [Compound 89] | 100 |
| Cc1ccc2c(c1)c1c(n2CCc2ccc(C)[n+]([O-])c2)CCN(C)C1 [Compound 394] | 7 |
| Cc1ccc(CCn2c3c(c4cc(C(F)(F)F)ccc42)CN(C)CC3)cc1 [Compound 47] | 92 |
| Cc1ccc(CCn2c3c(c4ccccc42)CN(C)CC3)cc1 [Compound 1] | 98 |
| Cc1ccc(CCn2c3c(c4cc(C(F)(F)F)ccc42)CN(C)CC3)cn1 [Compound 53] | 49 |
| CN1CCc2c(c3c(Cl)cccc3n2CCC2CCCCC2)C1 [Compound 187] | 77 |
| Cc1ccc2c(c1)c1c(n2CCN2CCCCC2)CCN(C)C1 [Compound 224] | 61 |
| Cc1ccc2c(c1)c1c(n2CCc2ccc(C(=O)O)nc2)CCN(C)C1 [Compound 255] | 11 |
| CN1CCc2c(c3cc(F)ccc3n2CCc2ccc(F)cc2)C1 [Compound 253] | 87 |
| CCN1CCc2c(c3ccccc3n2CCc2ccccn2)C1 [Compound 6] | 39 |
| CN1CCc2c(c3cccc(Cl)c3n2CCc2ccccc2)C1 [Compound 83] | 95 |
| CCN1CCc2c(c3cc(C)ccc3n2CCc2ccc(C)nc2)C1 [Compound 31] | 85 |
| Cc1ccc2c(c1)c1c(n2CCc2ccc(C)nc2)CC(=O)N(C)C1 [Compound 195] | 2 |
| CC(C)c1ccc(CCn2c3c(c4cc(Cl)ccc42)CN(C)CC3)cn1 [Compound 372] | 94 |
| CN1CCc2c(c3ccccc3n2CCc2ccccn2)C1 [Compound 329] | 78 |
| CN1CCc2c(c3cc(Cl)ccc3n2CCc2ccc(C(F)(F)F)nc2)C1 [Compound 250] | 93 |
| CCCc1ccc(CCn2c3c(c4cc(C)ccc42)CN(C)CC3)cn1 [Compound 452] | 96 |
| CN1CCc2c(c3ccc(Cl)cc3n2CCc2ccccc2)C1 [Compound 82] | 100 |
| Cc1ccc(CCn2c3c(c4cc(Cl)ccc42)CN(C)CC3)cc1 [Compound 43] | 92 |
| CN1CCc2c(c3cc(Cl)ccc3n2CCc2ccncc2)C1 [Compound 56] | 91 |
| Cc1ccc2c(c1)c1c(n2CCc2ccc(C)nc2)CCN(C2CC2)C1 [Compound 51] | 17 |
